Target: D2 dopaminergic receptors (Rattus norvegicus)
Construct: rat striatum is used; from tissue; host or cells: rat striatum
Test: In vitro affinity for the D2 dopaminergic receptors by displacement of (^3 H) YM-09151-2
Format: binding
Details: mean of at least 3 experiments; rat striatum; (^3 H)YM-09151-2
measured.quantity: pKi D2
Respond using a number only.

O=C(c1ccc(F)c(Cl)c1)N1CCC(F)(CNCc2cccc(-c3ccco3)n2)CC1 [I-32] :: 5.65
CN(C)c1cccc(CNCC2(F)CCN(C(=O)c3ccc(Cl)c(Cl)c3)CC2)n1 [I-14] :: 6.48
CN(C)c1cccc(CNCC2(F)CCN(C(=O)c3ccc(F)c(Cl)c3)CC2)n1 [I-13] :: 6.56
CNc1cccc(CNCC2(F)CCN(C(=O)c3ccc(Cl)c(Cl)c3)CC2)n1 [I-11] :: 6.40

In the following, a different compound is considered.
Record CCCN(CCC)C1CCc2cccc(O)c2C1 (centres unmarked) [8-OH-DPAT, reference compound] : what is its pKi D2 with D2 dopaminergic receptors (Rattus norvegicus)?
6.26

----------
Target: D2 dopaminergic receptors (Rattus norvegicus, UniProt P61169)
Construct: rat striatum is used; from tissue; host or cells: rat striatum
Sequence (P61169 whole entry): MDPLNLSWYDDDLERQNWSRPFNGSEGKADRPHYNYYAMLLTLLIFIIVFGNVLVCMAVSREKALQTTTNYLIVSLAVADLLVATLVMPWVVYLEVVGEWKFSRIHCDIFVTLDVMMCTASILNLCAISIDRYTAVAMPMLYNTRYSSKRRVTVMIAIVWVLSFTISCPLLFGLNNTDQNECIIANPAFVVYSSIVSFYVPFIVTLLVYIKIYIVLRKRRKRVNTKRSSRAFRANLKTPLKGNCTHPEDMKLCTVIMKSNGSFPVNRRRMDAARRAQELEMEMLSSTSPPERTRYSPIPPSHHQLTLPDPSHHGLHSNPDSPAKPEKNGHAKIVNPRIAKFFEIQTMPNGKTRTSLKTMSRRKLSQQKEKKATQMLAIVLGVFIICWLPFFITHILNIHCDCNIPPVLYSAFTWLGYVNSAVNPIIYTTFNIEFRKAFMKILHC
Assay: In vitro affinity for the D2 dopaminergic receptors by displacement of (^3 H) YM-09151-2
Type: binding
measured.quantity: Ki (µM)
Entry rule: numbers only, all in µM.

Look up Ki for this compound: CNc1nc(CNCC2(F)CCN(C(=O)c3ccc(F)c(Cl)c3)CC2)ccc1C [I-55]
1.29

----------
Let's look at some compounds and their measured pKi 5-HT1A.
Molecular target: 5-HT1A receptors (Rattus norvegicus)
Assay: In vitro affinity for the 5-HT1A receptors by displacement of (^3 H)8-OH-DPAT
Assay type: binding
Set-up: rat cerebral cortices are used; from tissue; host or cells: rat cerebral cortex
Conditions: mean of at least 3 experiments; rat cerebral cortex; (^3 H)8-OH-DPAT
Respond using a number only.

CNc1cccc(CNCC2(F)CCN(C(=O)c3ccc(F)c(Cl)c3)CC2)n1 :: 9.69
CN(C)c1cccc(CNCC2(F)CCN(C(=O)c3ccc(Cl)c(Cl)c3)CC2)n1 :: 9.61
Cc1ccc(CNCC2(F)CCN(C(=O)c3ccc(F)c(Cl)c3)CC2)nc1N(C)C :: 9.50

Record `CNc1nc(CNCC2(F)CCN(C(=O)c3ccc(F)c(Cl)c3)CC2)ccc1C` : what is its pKi 5-HT1A with 5-HT1A receptors (Rattus norvegicus)?
10.12

Record `CCNc1cccc(CNCC2(F)CCN(C(=O)c3ccc(F)c(Cl)c3)CC2)n1` : what is its pKi 5-HT1A with 5-HT1A receptors (Rattus norvegicus)?
9.73

----------
Let's look at some compounds and their measured ED50.
Biological target: 5-HT1A receptors (Rattus norvegicus)
Assay: In vivo 5-HT1A agonist activity: lower lip retraction (LLR) in rats after oral administration
Design: Sprague Dawley male rats; from tissue; host or cells: whole animal, Sprague Dawley male rats (central nervous system); species or system rat (Sprague Dawley male)
Conditions: 1 h, read-out: LLR p.o (60 minutes) ED50, oral, observed t55 to t65 minutes
Answer with the figure and its unit, nothing else.

Consider the following illustrative entries.
CCNc1cccc(CNCC2(F)CCN(C(=O)c3ccc(F)c(Cl)c3)CC2)n1 :: 0.31 mg/kg
O=C(c1ccc(F)c(Cl)c1)N1CCC(F)(CNCc2cccc(-c3cc[nH]n3)n2)CC1 :: 0.31 mg/kg
CN(C)c1cccc(CNCC2(F)CCN(C(=O)c3ccc(Cl)c(Cl)c3)CC2)n1 :: 0.31 mg/kg
Cc1ccc(CNCC2(F)CCN(C(=O)c3ccc(F)c(Cl)c3)CC2)nc1N(C)C :: 0.08 mg/kg

Look up ED50 for this compound: `O=C(c1ccc(F)c(Cl)c1)N1CCC(F)(CNCc2cccc(N3CCC3)n2)CC1`
0.08 mg/kg

Look up ED50 for this compound: `CN(C)c1cccc(CNCC2(F)CCN(C(=O)c3ccc(F)c(Cl)c3)CC2)n1`
0.31 mg/kg

Look up ED50 for this compound: `CNc1cccc(CNCC2(F)CCN(C(=O)c3ccc(F)c(Cl)c3)CC2)n1`
0.31 mg/kg

Look up ED50 for this compound: O=C1CC2(CCCC2)CC(=O)N1CCCCN1CCN(c2ncccn2)CC1 [Buspirone, reference compound]
20 mg/kg

Look up ED50 for this compound: `O=C(c1ccc(F)c(Cl)c1)N1CCC(F)(CNCc2cccc(-c3ccco3)n2)CC1`
0.31 mg/kg

Look up ED50 for this compound: `Cc1ccc(CNCC2(F)CCN(C(=O)c3ccc(Cl)c(Cl)c3)CC2)nc1`
0.31 mg/kg

Look up ED50 for this compound: `CNc1cccc(CNCC2(F)CCN(C(=O)c3ccc(Cl)c(Cl)c3)CC2)n1`
0.31 mg/kg

----------
Target: 5-HT1A receptors (Rattus norvegicus)
Sequence (P19327 1-422): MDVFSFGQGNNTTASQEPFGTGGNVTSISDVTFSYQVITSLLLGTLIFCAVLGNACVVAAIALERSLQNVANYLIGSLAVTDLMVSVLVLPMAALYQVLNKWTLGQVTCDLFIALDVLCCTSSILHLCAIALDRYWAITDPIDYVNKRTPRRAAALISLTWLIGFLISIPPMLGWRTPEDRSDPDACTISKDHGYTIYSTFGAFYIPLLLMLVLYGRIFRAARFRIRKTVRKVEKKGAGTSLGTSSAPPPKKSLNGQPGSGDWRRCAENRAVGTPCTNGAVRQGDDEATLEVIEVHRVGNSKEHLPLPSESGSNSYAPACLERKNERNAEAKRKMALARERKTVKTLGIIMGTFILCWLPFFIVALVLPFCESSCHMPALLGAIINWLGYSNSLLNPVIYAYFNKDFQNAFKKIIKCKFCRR
Test: In vitro affinity for the 5-HT1A receptors by displacement of (^3 H)8-OH-DPAT
Type: binding
Parameters: rat cerebral cortices are used; from tissue; host or cells: rat cerebral cortex
Settings: ratio of affinity constants (Ki) D2 /(Ki) 5-HT1A
Under this convention, 1 denotes 5-HT1A /D2 Selectivity strictly below 2000 and -1 denotes 5-HT1A /D2 Selectivity at or above 2000.

Reference set (3 entries):
CN(C)c1cccc(CNCC2(F)CCN(C(=O)c3ccc(Cl)c(Cl)c3)CC2)n1 :: 1
CNc1cccc(CNCC2(F)CCN(C(=O)c3ccc(Cl)c(Cl)c3)CC2)n1 :: 1
Cc1ccc(CNCC2(F)CCN(C(=O)c3ccc(F)c(Cl)c3)CC2)nc1N(C)C :: 1

Does `CN(C)c1cccc(CNCC2(F)CCN(C(=O)c3ccc(F)c(Cl)c3)CC2)n1` have 5-HT1A /D2 Selectivity strictly under 2000?
-1

Does `Cc1ccc(CNCC2(F)CCN(C(=O)c3ccc(Cl)c(Cl)c3)CC2)nc1` have 5-HT1A /D2 Selectivity strictly under 2000?
-1

Does `CCNc1cccc(CNCC2(F)CCN(C(=O)c3ccc(F)c(Cl)c3)CC2)n1` have 5-HT1A /D2 Selectivity strictly under 2000?
1

Does `O=C(c1ccc(F)c(Cl)c1)N1CCC(F)(CNCc2cccc(N3CCC3)n2)CC1` have 5-HT1A /D2 Selectivity strictly under 2000?
-1

Does `CNc1cccc(CNCC2(F)CCN(C(=O)c3ccc(F)c(Cl)c3)CC2)n1` have 5-HT1A /D2 Selectivity strictly under 2000?
-1

----------
Molecular target: D2 dopaminergic receptors (Rattus norvegicus)
Construct: rat striatum is used; from tissue; host or cells: rat striatum
Experiment: In vitro affinity for the D2 dopaminergic receptors by displacement of (^3 H) YM-09151-2
Assay type: binding
Settings: mean of at least 3 experiments; rat striatum; (^3 H)YM-09151-2; read-out: pKi D2 (converted)
measured.quantity: Ki (nM)
Entry rule: numbers only, all in nM.

Consider the following illustrative entries.
CNc1cccc(CNCC2(F)CCN(C(=O)c3ccc(F)c(Cl)c3)CC2)n1 [I-59] :: 1020
CCNc1cccc(CNCC2(F)CCN(C(=O)c3ccc(F)c(Cl)c3)CC2)n1 [I-58] :: 234
O=C(c1ccc(F)c(Cl)c1)N1CCC(F)(CNCc2cccc(N3CCC3)n2)CC1 [I-56] :: 1020
O=C(c1ccc(F)c(Cl)c1)N1CCC(F)(CNCc2cccc(-c3cc[nH]n3)n2)CC1 [I-62] :: 7590

In the following, a different compound is considered.
Look up Ki for this compound: Cc1ccc(CNCC2(F)CCN(C(=O)c3ccc(F)c(Cl)c3)CC2)nc1N(C)C [I-61]
603

----------
Biological target: 5-HT1A receptors (Rattus norvegicus)
Test: In vitro affinity for the 5-HT1A receptors by displacement of (^3 H)8-OH-DPAT
Format: binding
Parameters: rat cerebral cortices are used; from tissue; host or cells: rat cerebral cortex
Settings: mean of at least 3 experiments; rat cerebral cortex; (^3 H)8-OH-DPAT
Let's look at some molecules and their measured pKi 5-HT1A.
Respond using a number only.

Look up pKi 5-HT1A for this molecule: `CNc1cccc(CNCC2(F)CCN(C(=O)c3ccc(Cl)c(Cl)c3)CC2)n1`
9.67

Look up pKi 5-HT1A for this molecule: `Cc1ccc(CNCC2(F)CCN(C(=O)c3ccc(Cl)c(Cl)c3)CC2)nc1`
9.24

Look up pKi 5-HT1A for this molecule: `O=C(c1ccc(F)c(Cl)c1)N1CCC(F)(CNCc2cccc(-c3cc[nH]n3)n2)CC1`
9.34

Look up pKi 5-HT1A for this molecule: `O=C(c1ccc(F)c(Cl)c1)N1CCC(F)(CNCc2cccc(-c3ccco3)n2)CC1`
9.55

Look up pKi 5-HT1A for this molecule: `CN(C)c1cccc(CNCC2(F)CCN(C(=O)c3ccc(F)c(Cl)c3)CC2)n1`
9.92
